Target: human CD137 ECD-mIgG2a (human)
Sequence (chain, as listed by the source limits assumed): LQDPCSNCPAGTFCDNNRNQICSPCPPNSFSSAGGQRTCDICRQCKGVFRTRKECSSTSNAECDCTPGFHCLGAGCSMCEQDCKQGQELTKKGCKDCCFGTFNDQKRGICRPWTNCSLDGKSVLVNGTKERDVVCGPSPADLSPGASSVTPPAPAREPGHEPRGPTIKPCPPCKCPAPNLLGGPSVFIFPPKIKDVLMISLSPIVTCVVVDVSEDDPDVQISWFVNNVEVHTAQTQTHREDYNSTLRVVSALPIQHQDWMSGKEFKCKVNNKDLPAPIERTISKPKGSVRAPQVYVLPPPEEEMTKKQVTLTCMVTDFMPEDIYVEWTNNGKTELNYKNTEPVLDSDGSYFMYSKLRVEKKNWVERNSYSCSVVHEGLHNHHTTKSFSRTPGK
Assay: ELISA on coated human CD137-ECD-mIgG2a with supernatant containing the CH3 fusion [panel B]
reportedProperty: binding result

binder="CH3-BGA-4712-M3 with W47F mutation in VH region (other) GQPREPQVYTLPPSREEMTKNQVSLTCLVKGFYPSDIAVEWESNGQPENNYKTTPPVLDSDGSFFLYSKLTVDKSRWQQGNVFSCSVMHEALHNHYTQKSLSLSPGKGGGGSEVQLLESGGGLVQPGGSLRLSCAASGFTLSAEDVGWVRQAPGKGLEFVSAILDFGGSTYYAESVKGRFTISRDNAKNTLYLQMSSLRAEDTAVYYCARVVYHAGGGVTFDYWGQGTLVTVSS" endpointresult="no binding"
binder="CH3-BGA-4712-M3 with W47Y mutation in VH region (other) GQPREPQVYTLPPSREEMTKNQVSLTCLVKGFYPSDIAVEWESNGQPENNYKTTPPVLDSDGSFFLYSKLTVDKSRWQQGNVFSCSVMHEALHNHYTQKSLSLSPGKGGGGSEVQLLESGGGLVQPGGSLRLSCAASGFTLSAEDVGWVRQAPGKGLEYVSAILDFGGSTYYAESVKGRFTISRDNAKNTLYLQMSSLRAEDTAVYYCARVVYHAGGGVTFDYWGQGTLVTVSS" endpointresult="no binding"
binder="CH3-BGA-4712-M3 (other, Tested as bacterial supernatant; expressed as a dimer of CH3 fusion proteins from the phagemid; also called CH3 fusion of anti-huCD137 VH domain antibody) GQPREPQVYTLPPSREEMTKNQVSLTCLVKGFYPSDIAVEWESNGQPENNYKTTPPVLDSDGSFFLYSKLTVDKSRWQQGNVFSCSVMHEALHNHYTQKSLSLSPGKGGGGSEVQLLESGGGLVQPGGSLRLSCAASGFTLSAEDVGWVRQAPGKGLEWVSAILDFGGSTYYAESVKGRFTISRDNAKNTLYLQMSSLRAEDTAVYYCARVVYHAGGGVTFDYWGQGTLVTVSS" endpointresult=binds
binder="CH3-BGA-4712-M3 with W47G mutation in VH region (other, built from pieces so that position 47 counts on the VH) GQPREPQVYTLPPSREEMTKNQVSLTCLVKGFYPSDIAVEWESNGQPENNYKTTPPVLDSDGSFFLYSKLTVDKSRWQQGNVFSCSVMHEALHNHYTQKSLSLSPGKGGGGSEVQLLESGGGLVQPGGSLRLSCAASGFTLSAEDVGWVRQAPGKGLEGVSAILDFGGSTYYAESVKGRFTISRDNAKNTLYLQMSSLRAEDTAVYYCARVVYHAGGGVTFDYWGQGTLVTVSS" endpointresult="no binding"
